Origin of measurements: patent US20240425523A1

# SYSTEM_TESTED: EGFR L858R (BaF3-L858R cells) (Homo sapiens, UniProt P00533, L858R)
# Construct: host or cells: BaF3
# Sequence (P00533 25-1210 L858R): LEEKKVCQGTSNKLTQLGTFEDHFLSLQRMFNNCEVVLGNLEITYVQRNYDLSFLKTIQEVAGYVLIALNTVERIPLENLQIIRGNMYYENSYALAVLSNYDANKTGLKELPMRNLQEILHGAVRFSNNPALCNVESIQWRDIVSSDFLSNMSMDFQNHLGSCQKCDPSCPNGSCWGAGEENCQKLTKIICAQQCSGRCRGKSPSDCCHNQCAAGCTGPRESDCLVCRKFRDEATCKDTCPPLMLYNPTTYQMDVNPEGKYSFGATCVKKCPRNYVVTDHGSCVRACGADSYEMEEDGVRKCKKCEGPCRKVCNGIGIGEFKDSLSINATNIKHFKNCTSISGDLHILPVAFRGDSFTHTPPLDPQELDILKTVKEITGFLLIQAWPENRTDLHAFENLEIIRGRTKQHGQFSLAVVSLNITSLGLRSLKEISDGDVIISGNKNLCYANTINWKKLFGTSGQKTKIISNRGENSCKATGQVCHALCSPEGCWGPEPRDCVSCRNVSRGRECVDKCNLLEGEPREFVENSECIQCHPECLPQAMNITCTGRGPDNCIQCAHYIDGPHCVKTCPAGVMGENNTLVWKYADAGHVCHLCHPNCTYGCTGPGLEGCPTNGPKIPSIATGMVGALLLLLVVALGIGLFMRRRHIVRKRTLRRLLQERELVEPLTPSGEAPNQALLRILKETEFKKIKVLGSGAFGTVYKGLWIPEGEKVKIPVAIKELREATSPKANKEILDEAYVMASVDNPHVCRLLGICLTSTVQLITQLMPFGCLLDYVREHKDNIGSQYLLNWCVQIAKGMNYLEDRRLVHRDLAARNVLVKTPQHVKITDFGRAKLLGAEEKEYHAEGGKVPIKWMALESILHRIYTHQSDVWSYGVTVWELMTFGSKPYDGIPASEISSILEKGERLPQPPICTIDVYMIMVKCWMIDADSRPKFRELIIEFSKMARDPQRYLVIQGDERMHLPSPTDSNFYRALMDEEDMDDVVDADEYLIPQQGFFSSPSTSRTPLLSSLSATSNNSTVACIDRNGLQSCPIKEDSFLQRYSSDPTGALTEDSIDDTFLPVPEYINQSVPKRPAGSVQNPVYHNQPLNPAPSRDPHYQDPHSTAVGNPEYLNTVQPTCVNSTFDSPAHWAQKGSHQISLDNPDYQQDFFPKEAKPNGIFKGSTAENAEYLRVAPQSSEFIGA
# TEST_SUMMARY: Cell degradation of EGFR, HTRF assay, BaF3-L858R cells
# Type: cell-based
# EXPERIMENTAL_SETUP: 16 h treatment, maximum percentage of degradation
MEASURED_ENDPOINT: Dmax (%)

COMPOUND	SYSTEM_TESTED	MEASURED_ENDPOINT	UNIT_OF_MEASURE	VALUE_OBSERVED
Cc1cc2cc(n1)-c1c(C)nn(C)c1OC[C@H]1CC[C@H](C1)CN1/C(=N/C2=O)Nc2ccc(N3CC(N(C)C4CCN(c5cc(F)c([C@H]6CCC(=O)NC6=O)c(F)c5)CC4)C3)cc21	EGFR L858R (BaF3-L858R cells) (Homo sapiens, UniProt P00533, L858R)	Dmax	%	84.4
COC[C@@H]1CN(c2ccc3c(c2)N2CC4CC[C@H](COc5c(c(C)nn5C)-c5cc(cc(C)n5)C(=O)/N=C/2N3)C4)CCN1CC1CCN(c2cc(F)c([C@H]3CCC(=O)NC3=O)c(F)c2)CC1	EGFR L858R (BaF3-L858R cells) (Homo sapiens, UniProt P00533, L858R)	Dmax	%	88.8
Cc1cc2cc(n1)-c1c(C)nn(C)c1OC[C@H]1CCC(C1)CN1/C(=N/C2=O)Nc2ccc(N3CCC(N(C)C4CCN(c5cc(F)c([C@H]6CCC(=O)NC6=O)c(F)c5)CC4)CC3)cc21	EGFR L858R (BaF3-L858R cells) (Homo sapiens, UniProt P00533, L858R)	Dmax	%	81.1
Cc1cc2cc(n1)-c1cnn(C)c1OC[C@H]1CCC(C1)CN1/C(=N/C2=O)Nc2ccc(N3CCN([C@@H]4CCN(c5ccc(OC6CCC(=O)NC6=O)cc5F)C[C@@H]4F)CC3)cc21 (some centres unmarked)	EGFR L858R (BaF3-L858R cells) (Homo sapiens, UniProt P00533, L858R)	Dmax	%	81.9
Cc1cc2cc(n1)-c1c(C)nn(C)c1OC[C@H]1CCC(C1)CN1/C(=N/C2=O)Nc2ccc(N3CCN(CC4CCN(c5cc(F)c([C@H]6CCC(=O)NC6=O)c(F)c5)CC4)[C@H](C)C3)cc21	EGFR L858R (BaF3-L858R cells) (Homo sapiens, UniProt P00533, L858R)	Dmax	%	85.9
